This collection of values is drawn from patent US10906876B2.

Target: Nox2 (Homo sapiens, UniProt P04839)
Construct: expressed in transfected cells
Sequence (P04839 2-570 limits assumed): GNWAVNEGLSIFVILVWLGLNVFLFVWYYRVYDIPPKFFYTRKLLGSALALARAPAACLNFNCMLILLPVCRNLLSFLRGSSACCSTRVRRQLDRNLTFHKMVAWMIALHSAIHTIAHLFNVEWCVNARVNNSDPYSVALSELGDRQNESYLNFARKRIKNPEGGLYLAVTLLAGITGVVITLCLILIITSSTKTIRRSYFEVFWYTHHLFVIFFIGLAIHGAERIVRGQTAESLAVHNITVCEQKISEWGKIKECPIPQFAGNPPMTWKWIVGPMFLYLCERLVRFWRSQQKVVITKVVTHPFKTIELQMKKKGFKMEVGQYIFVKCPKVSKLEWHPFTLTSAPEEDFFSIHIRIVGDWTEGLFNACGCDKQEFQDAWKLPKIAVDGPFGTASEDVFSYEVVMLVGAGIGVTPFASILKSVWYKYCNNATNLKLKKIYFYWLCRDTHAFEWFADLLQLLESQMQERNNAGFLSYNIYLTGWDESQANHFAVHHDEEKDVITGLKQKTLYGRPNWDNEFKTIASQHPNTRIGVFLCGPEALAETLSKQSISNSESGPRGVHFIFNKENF
Experiment: ROS (superoxide) generation in whole COS-Nox2 cells, L-012 chemiluminescence
Format: cell-based
Settings: whole COS-Nox2 cells stimulated with 5 μM PMA
MEASURED QUANTITY: IC50 (µM)

A = C=C(C)CC1C2c3c(Br)cccc3C(CC2(C)C)N1Cc1cccc(F)c1 (racemic) [Compound 11f]
B = C=C(C)CC1C2c3c(Br)cccc3C(CC2(C)C)N1CCCCC (racemic) [Compound 11g]
Q. Between the entries labeled A and B , whose measured IC50 is lower? State your choice using its label.
A. B
(B: 20 µM, A: 68 µM)
